- Tested on: A549 human lung cancer cells
- protocol.notes: cell viability assay (MTT)
- Format: cell-based
- condition.parameters: 500 µg/mL, 24 h, read-out: Validity (%) for sample concentrations (µg/mL) 500
Field: viability at 500 µg/mL. Provide a value for each of the molecules that follow.
Report only the number, with the unit % understood.

Task item: Query (molecule): O=C1CSC(c2ccc(Br)cc2)N1c1nc(-c2cc(Cl)cc3c2-c2ccc(Cl)cc2C3)cs1 (stereo not shown) [5d] ; field requested: viability at 500 µg/mL
Reply: 58.6

Task item: Thanks! And O=C1CSC(c2ccccc2)N1c1nc(-c2cc(Cl)cc3c2-c2ccc(Cl)cc2C3)cs1 (stereo not shown) [5a] ?
Reply: 45.5

Task item: Lookup O=C(O)c1ccc(C2C(Cl)C(=O)N2c2nc(-c3cc(Cl)cc4c3-c3ccc(Cl)cc3C4)cs2)cc1 (stereo not shown) [6g]
Reply: 18.4

Task item: Now this one: O=C1CSC(c2ccncc2)N1c1nc(-c2cc(Cl)cc3c2-c2ccc(Cl)cc2C3)cs1 (stereo not shown) [5m]
Reply: 37.3
